Values were extracted from patent US6433188B1.

assayReadout: melting point

// worked examples, melting point included
CS(=O)(=O)c1ccc(C(CC2CCCC2)C(=O)Nc2nc3ccccc3o2)cc1[N+](=O)[O-] (stereo not shown) = 106 to 111 °C
O=C(Nc1nc2ccc(F)cc2s1)C(CC1CCCC1)c1ccc(Cl)c(Cl)c1 (stereo not shown) = 131 to 133 °C
CS(=O)(=O)c1ccc(C(CC2CCCC2)C(=O)Nc2nc3ccccc3s2)cc1C(F)(F)F (stereo not shown) = 105 to 110 °C

INPUT: Entry O=C(Nc1nc2ccccc2[nH]1)C(CC1CCCC1)c1ccc(Cl)c(Cl)c1 (stereo not shown) : reported melting point = ?
OUTPUT: 193.4 to 196.8 °C

INPUT: Field entry: CS(=O)(=O)c1ccc(C(CC2CCCC2)C(=O)Nc2ccc3ccccc3n2)cc1Br (stereo not shown)
OUTPUT: 95 to 100 °C

###

assayReadout: melting point

Example compounds with recorded melting point:
CS(=O)(=O)c1ccc(C(CC2CCCC2)C(=O)Nc2nc3ccccc3s2)cc1 (centres unmarked) = 206 to 209 °C
O=C(Nc1nc2ccccc2s1)C(CC1CCCC1)c1ccc(Cl)c(Cl)c1 (centres unmarked) = 104 to 105 °C
CS(=O)(=O)c1ccc([C@@H](CC2CCCC2)C(=O)Nc2nc3ccccc3[nH]2)cc1 = 230 to 232 °C
CS(=O)(=O)c1ccc(C(CC2CCCC2)C(=O)Nc2nc3ccccc3[nH]2)cc1C#N (centres unmarked) = 148 to 152 °C
CS(=O)(=O)c1ccc(C(CC2CCCC2)C(=O)Nc2ccc3ccccc3n2)cc1C#N (centres unmarked) = 95 to 99 °C

INPUT: So what does the record say about melting point for CS(=O)(=O)c1ccc(C(CC2CCCC2)C(=O)Nc2nc3ccccc3[nH]2)cc1Br (centres unmarked) ?
OUTPUT: > 220 °C

INPUT: Now consider CS(=O)(=O)c1ccc(C(CC2CCCC2)C(=O)Nc2nc3ccccc3o2)cc1C#N (centres unmarked) .
OUTPUT: 108 to 112 °C

INPUT: Next up: O=C(Nc1ccc2ccccc2n1)C(CC1CCCC1)c1ccc(Cl)c(Cl)c1 (centres unmarked)
OUTPUT: 172 to 173 °C

###

assayReadout: melting point

INPUT: Entry CS(=O)(=O)c1ccc(C(CC2CCCC2)C(=O)Nc2nc3ccccc3s2)cc1[N+](=O)[O-] (centres unmarked) : reported melting point = ?
OUTPUT: 108 to 113 °C

INPUT: Next up: CS(=O)(=O)c1ccc([C@@H](CC2CCCC2)C(=O)Nc2nc3ccccc3s2)cc1
OUTPUT: 100 to 105 °C

INPUT: Would you kindly repeat that for CS(=O)(=O)c1ccc(C(CC2CCCC2)C(=O)Nc2ccc3ccccc3n2)cc1C(F)(F)F (centres unmarked) ?
OUTPUT: 90 to 95 °C

###

assayReadout: melting point

CS(=O)(=O)c1ccc([C@@H](CC2CCCC2)C(=O)Nc2nc3ccccc3[nH]2)cc1Cl [Example 21] = > 215 °C

Here's the next entry for you.
INPUT: Could you tell me which melting point is on file for CS(=O)(=O)c1ccc(C(CC2CCCC2)C(=O)Nc2ccc3ccccc3n2)cc1[N+](=O)[O-] (centres unmarked) [Example 35] ?
OUTPUT: 102 to 106 °C

###

assayReadout: melting point

Recorded melting point, per entry:
O=C(Nc1nc2c(s1)CCCC2)C(CC1CCCC1)c1ccc(Cl)c(Cl)c1 (stereo not drawn) = 170 to 171 °C
CS(=O)(=O)c1ccc(C(CC2CCCC2)C(=O)Nc2nc3ccccc3[nH]2)cc1[N+](=O)[O-] (stereo not drawn) = 113 to 117 °C

INPUT: Would you mind telling me what melting point value was observed for CS(=O)(=O)c1ccc(C(CC2CCCC2)C(=O)Nc2nc3ccccc3s2)cc1C#N (stereo not drawn) ?
OUTPUT: 115 to 118 °C
